Give TGI for every item shown.
System: SR leukemia
Procedure Text: NCI tumour cell line growth inhibition, 48 h

Report TGI for every entry below.
1. CCOC(=O)C1C(=O)c2cccc(OC)c2C2COC(=O)N12 (stereo not given)
2. O=C1Cc2c([nH]c3cc(Br)ccc23)-c2ccccc2N1
3. Nc1ncnc2c1ncn2COC/C=C/I
4. COc1cc(OC)c2c(c1Cl)O[C@]1(C2=O)C(OCc2ccccc2)=CC(=O)C[C@H]1C

1: > 100 µM; 2: > 100 µM; 3: > 100 µM; 4: 10.8 µM

Batch request: TGI for each of the following compounds.
1. Cc1c(C=C(C#N)C#N)c(=O)n(C)c(=O)n1C
2. C=C1CC(CC(=O)C(C)CC2CC(=C)C(=O)O2)OC1=O (stereo not given)
3. C=[N+](CNC(=O)CNC(=O)C(Cc1ccccc1)NC(=O)OC(C)(C)C)C(=O)CNC(=O)C(Cc1ccccc1)NC(=O)OC(C)(C)C (stereo not given)
4. Cn1c(=O)c2[nH]cnc2n(C)c1=O.[CH2-]C(Cc1cccc2cc(C(=O)O)c(=O)oc12)OC.[Hg+2].[OH-] (stereo not given)
5. Nc1nc(N)c(-c2ccc(Cl)cc2)c(/C=C/c2ccc([N+](=O)[O-])cc2)n1
6. C[C@H](c1ccc(Cl)cc1[N+](=O)[O-])N1C(=O)c2cc(I)ccc2NC(=O)[C@H]1c1ccc(Cl)cc1

1. > 100 µM
2. 24.1 µM
3. > 100 µM
4. 53.8 µM
5. > 100 µM
6. > 100 µM
